biological target: NRAS Q61K (Homo sapiens (Human), UniProt P01111+P62937, Q61K); assay: Ras-Raf (BRAF RBD) disruption / FRET / MOA assay, NRAS Q61K; type: biochemical; details: NRAS Q61K; Ras-Raf disruption/FRET/MOA assay; read-out: IC50* NRAS Q61K FRET data
Sequence (P01111 whole entry Q61K): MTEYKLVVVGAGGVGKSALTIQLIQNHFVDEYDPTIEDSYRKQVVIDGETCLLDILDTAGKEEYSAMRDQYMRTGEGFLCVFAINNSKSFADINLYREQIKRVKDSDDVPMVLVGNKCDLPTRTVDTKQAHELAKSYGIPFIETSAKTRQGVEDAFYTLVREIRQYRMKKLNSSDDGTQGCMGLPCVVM
Sequence (P62937 whole entry): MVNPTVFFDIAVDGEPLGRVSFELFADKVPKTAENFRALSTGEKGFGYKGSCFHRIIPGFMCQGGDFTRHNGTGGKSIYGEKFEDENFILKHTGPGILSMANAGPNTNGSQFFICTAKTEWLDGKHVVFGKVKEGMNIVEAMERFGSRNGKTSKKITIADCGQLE
pIC50: −log10 of the molar value.
recorded_endpoint: pIC50

Examples from the recorded data:
compound | pIC50
CCn1c(-c2cccnc2[C@H](C)OC)c2c3cc(ccc31)-c1cccc(c1)C[C@H](NC(=O)[C@H](C(C)C)N1CC[C@]3(CCN(C(=O)C#C[C@@]4(N(C)C)CCOC4)C3)C1=O)C(=O)N1CCC[C@H](N1)C(=O)OCC(C)(C)C2 (atropisomer, axis not shown) | 5.00 to 6.00
CCn1c(-c2cccnc2[C@H](C)OC)c2c3cc(ccc31)-c1cc(CF)cc(c1)C[C@H](NC(=O)[C@H](C(C)C)N1CC[C@]3(CCN(C(=O)C#CC(C)(C)N(C)C)C3)C1=O)C(=O)N1CCC[C@H](N1)C(=O)OCC(C)(C)C2 (atropisomer, axis not shown) | 5.00 to 6.00
CC#CC(=O)N1CC[C@H](C(=O)N(C)[C@H](C(=O)N[C@H]2Cc3cccc(c3)-c3ccc4c(c3)c(c(-c3cccnc3[C@H](C)OC)n4C#N)CC(C)(C)COC(=O)[C@@H]3CCCN(N3)C2=O)C(C)C)C1 (atropisomer, axis not shown) | < 5.00

Query compound follows.
Assign pIC50 to the following record: C=CC(=O)N1CCC[C@H]2CN(C(=O)N(C)[C@H](C(=O)N[C@H]3Cc4nc(cs4)-c4ccc5c(c4)c(c(-c4cccnc4[C@H](C)OC)n5CC)CC(C)(C)COC(=O)[C@@H]4CCCN(N4)C3=O)C(C)C)C[C@H]21 (atropisomer, axis not shown) 6.00 to 7.00

* * *

test system: NCI-H358 cells (K-Ras G12C); assay: Potency assay: pERK in NCI-H358 cells; format: cell-based, human; conditions: Homo sapiens, NCI-H358; H358 KRAS G12C; read-out: pERK EC50
recorded_endpoint: EC50

compound | system | test_value
C=CC(=O)N1C[C@H](C)N(C(=O)N(C)[C@H](C(=O)N[C@H]2Cc3nc(cs3)-c3ccc4c(c3)c(c(-c3cccnc3[C@H](C)OC)n4CC)CC(C)(C)COC(=O)[C@@H]3CCCN(N3)C2=O)C(C)C)C[C@@H]1C (atropisomer, axis not shown) | NCI-H358 cells (K-Ras G12C) | < 5 µM
C=CC(=O)N1CC[C@@H]2[C@H](C1)CN2C(=O)N(C)[C@H](C(=O)N[C@H]1Cc2nc(cs2)-c2ccc3c(c2)c(c(-c2cccnc2[C@H](C)OC)n3CC)CC(C)(C)COC(=O)[C@@H]2CCCN(N2)C1=O)C(C)C (atropisomer, axis not shown) | NCI-H358 cells (K-Ras G12C) | < 5 µM
C=CC(=O)N1C[C@@H](C)N(C(=O)N(C)[C@H](C(=O)N[C@H]2Cc3nc(cs3)-c3ccc4c(c3)c(c(-c3cccnc3[C@H](C)OC)n4CC)CC(C)(C)COC(=O)[C@@H]3CCCN(N3)C2=O)C(C)C)C[C@@H]1C (atropisomer, axis not shown) | NCI-H358 cells (K-Ras G12C) | < 5 µM

Query compound follows.
Assign EC50 to the following record: `CCn1c(-c2cccnc2COC)c2c3cc(ccc31)-c1cc(O)cc(c1)C[C@H](NC(=O)[C@H](C(C)C)N(C)C(=O)[C@H]1CCN(C(=O)C#CCCN3CCOCC3)C1)C(=O)N1CCC[C@H](N1)C(=O)OCC(C)(C)C2` < 5 µM
